- experimentalSystem: CYP21 (steroid 21-hydroxylase) (Homo sapiens)
- testDetails: Inhibition of human CYP21 transfected in HEK293 cells assessed as decrease in conversion of progesterone to 11-deoxycorticosterone at 100 nM preincubated for 5 hrs followed by progesterone addition measured after 20 hrs by ELISA relative to control
- Type: cell-based
- testContext: HEK293 cells transfected with human CYP21, probe progesterone
valueKind: inhibition at 20 h, 0.1 µM

                                   compound  result
0  C[C@]12CC[C@H]3[C@@H](CCN4C(=O)CCCC[C@]34C)[C@@H]1CC=C2c1cccnc1   < 30%

Kindly give each listed record's inhibition at 20 h, 0.1 µM.
1. COc1cncc(C2=CC=C3[C@@H]4CCC5=CC(=O)NCC[C@]5(C)[C@H]4CC[C@]23C)c1
2. CCc1cncc(C2=CC[C@H]3[C@@H]4CCC5=CC(=O)NCC[C@]5(C)[C@H]4CC[C@]23C)c1
3. C[C@]12CCNC(=O)C=C1CC[C@@H]1[C@@H]2CC[C@]2(C)C(c3cccnc3)=CC[C@@H]12
4. C[C@]12CC[C@H]3[C@@H](CC[C@H]4CC(=O)CC[C@@]43C)C1=CC=C2n1ccnc1
5. C[C@]12CC[C@H]3[C@@H](CC=C4C[C@@H](O)CC[C@@]43C)C1=CC=C2c1cccnc1
6. CN1CC[C@@]2(C)C(=CC1=O)CC[C@H]1C3=CC=C(c4cccnc4)[C@@]3(C)CC[C@@H]12
7. Cc1cncc(C2=CC[C@H]3[C@@H]4CCC5=CC(=O)NCC[C@]5(C)[C@H]4CC[C@]23C)c1

Result:
1. ≥ 30%
2. < 30%
3. < 30%
4. < 30%
5. < 30%
6. ≥ 30%
7. ≥ 30%

Kindly give each listed record's inhibition at 20 h, 0.1 µM.
1. CO/N=C1/C=C2CC[C@H]3C4=CC=C(c5cccnc5)[C@@]4(C)CC[C@@H]3[C@@]2(C)CC1
2. C[C@]12CC[C@H]3[C@@H](CC[C@H]4CC(=O)NCC[C@@]43C)C1=CC=C2c1cccnc1

Result:
["≥ 30%", "< 30%"]

Kindly give each listed record's inhibition at 20 h, 0.1 µM.
1. C[C@]12CCCC(=O)CC1=CC[C@@H]1[C@@H]2CC[C@]2(C)C(n3ccnc3)=CC[C@@H]12
2. CCCOc1cncc(C2=CC[C@H]3[C@@H]4CCC5=CC(=O)NCC[C@]5(C)[C@H]4CC[C@]23C)c1
3. CC1C[C@H]2C3=CC=C(c4cncc(N)c4)[C@@]3(C)CC[C@@H]2[C@@]2(C)CCC(=O)C=C12 (stereo not given in full)
4. C[C@]12CCCC(=O)CC1=CC[C@@H]1[C@@H]2CC[C@]2(C)C(c3cnccn3)=CC[C@@H]12
5. C[C@]12CC[C@H]3[C@@H](CCC4=CC(=O)CC[C@@]43C)C1=CC=C2n1ccnc1

Result:
1: ≥ 30%; 2: < 30%; 3: < 30%; 4: ≥ 30%; 5: < 30%

---

- experimentalSystem: CYP21 (steroid 21-hydroxylase) (Homo sapiens, UniProt P08686)
- Sequence (P08686 whole entry): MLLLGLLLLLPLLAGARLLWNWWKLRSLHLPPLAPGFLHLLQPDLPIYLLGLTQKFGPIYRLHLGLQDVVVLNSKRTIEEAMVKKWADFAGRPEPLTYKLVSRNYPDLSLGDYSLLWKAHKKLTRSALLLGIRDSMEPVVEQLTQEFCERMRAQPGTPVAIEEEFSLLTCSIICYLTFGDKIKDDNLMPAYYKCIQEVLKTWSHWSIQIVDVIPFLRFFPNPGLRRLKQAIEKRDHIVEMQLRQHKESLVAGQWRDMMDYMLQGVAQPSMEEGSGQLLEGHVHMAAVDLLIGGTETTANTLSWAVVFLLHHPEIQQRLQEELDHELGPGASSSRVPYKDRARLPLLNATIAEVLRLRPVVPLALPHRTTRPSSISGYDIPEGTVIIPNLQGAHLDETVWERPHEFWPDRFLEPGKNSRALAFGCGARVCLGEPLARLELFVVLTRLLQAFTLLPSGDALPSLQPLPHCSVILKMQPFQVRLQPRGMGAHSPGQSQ
- testDetails: Inhibition of human CYP21 transfected in HEK293 cells assessed as decrease in conversion of progesterone to 11-deoxycorticosterone preincubated for 5 hrs followed by progesterone addition measured after 20 hrs by ELISA
- Type: cell-based
- Parameters: concentration or dose not given beside the values
- testContext: HEK293 cells transfected with human CYP21, probe progesterone
valueKind: inhibition at 20 h

// worked examples, inhibition at 20 h included
>>> print(df.to_string())
                                   molecule           valuekind     result
0  CC(=O)N[C@@H]1CC[C@@]2(C)C(=CC[C@@H]3[C@@H]2CC[C@]2(C)C(c4cncc(C(F)(F)F)c4)=CC[C@@H]32)C1  inhibition at 20 h  10 to 50%
1  C[C@]12CCC(=O)C=C1C=C[C@@H]1[C@@H]2CC[C@]2(C)C(c3cccnc3)=CC[C@@H]12  inhibition at 20 h      ≥ 50%
2  CC1=C2CC[C@@H]3[C@H](CC[C@]4(C)C(c5cccnc5)=CC[C@@H]34)[C@@]2(C)CCC1=O  inhibition at 20 h      ≥ 50%
3  CCCC(=O)N1CCC2CC[C@@H]3[C@H](CC[C@]4(C)C(n5ccnc5)=CC[C@@H]34)[C@@]2(C)CC1 (stereo partly drawn)  inhibition at 20 h      ≥ 50%
4  C[C@]12CC[C@H]3[C@@H](CC(F)C4(O)CC(=O)CC[C@]34C)[C@@H]1CC=C2c1cncc(F)c1 (stereo partly drawn)  inhibition at 20 h      ≥ 50%

Kindly give each listed record's inhibition at 20 h.
1. Cc1ccncc1C1=CC=C2C3CCC4C[C@@H](O)CC[C@]4(C)C3CC[C@]12C (stereo partly drawn)
2. C[C@]12CC[C@H]3[C@@H](CCC4=CC(=O)CC[C@@]43C)C1=CC=C2c1ccc(F)nc1
3. C[C@]12CCC(O)(CCCO)CC1CC[C@@H]1[C@@H]2CC[C@]2(C)C(c3cccnc3)=CC[C@@H]12 (stereo partly drawn)
4. C[C@]12CC[C@H](O)CC1=CC[C@@H]1[C@@H]2CC[C@]2(C)C(c3cncc(NS(C)(=O)=O)c3)=CC[C@@H]12

Result:
1. 10 to 50%
2. 10 to 50%
3. 10 to 50%
4. < 10%

Kindly give each listed record's inhibition at 20 h.
1. C[C@]12CCNC(=O)C=C1C1(CC1)C[C@@H]1[C@@H]2CC[C@]2(C)C(c3cccnc3)=CC[C@@H]12
2. C[C@]12CCNC(=O)C=C1CC[C@@H]1[C@@H]2CC[C@]2(C)C(c3cncc(C(F)F)c3)=CC[C@@H]12
3. C[C@]12CC[C@@H](NS(C)(=O)=O)CC1=CC[C@H]1C3CC=C(c4cccnc4)[C@@]3(C)CC[C@@H]12 (single isomer, unassigned)
4. C[C@]12CC[C@H]3[C@@H](CC(F)C4(O)CC(=O)CC[C@]34C)[C@@H]1CC=C2c1cccnc1 (stereo partly drawn)
5. C[C@]12CC[C@@H](NC(=O)C3CCC3)CC1=CC[C@@H]1[C@@H]2CC[C@]2(C)C(n3ccnc3)=CC[C@@H]12
6. C[C@]12CC[C@@H](NS(=O)(=O)C3CC3)CC1=CC[C@@H]1[C@@H]2CC[C@]2(C)C(c3cccnc3)=CC[C@@H]12
7. CO[C@H]1CC[C@@]2(C)C(=CC[C@@H]3[C@@H]2CC[C@]2(C)C(n4ccnc4)=CC[C@@H]32)C1

Result:
10 to 50%
≥ 50%
10 to 50%
≥ 50%
≥ 50%
10 to 50%
10 to 50%

Kindly give each listed record's inhibition at 20 h.
1. CCNC(=O)O[C@H]1CC[C@@]2(C)C(=CC[C@H]3C4=CC=C(c5cccnc5)[C@@]4(C)CC[C@@H]32)C1
2. CC(C)C(=O)O[C@H]1CC[C@@]2(C)C(=CC[C@H]3C4=CC=C(c5cccnc5)[C@@]4(C)CC[C@@H]32)C1

Result:
< 10%
10 to 50%

Kindly give each listed record's inhibition at 20 h.
1. C[C@@]1(O)CC[C@@]2(C)C(CC[C@@H]3[C@@H]2CC[C@]2(C)C(c4cccnc4)=CC[C@@H]32)C1 (stereo partly drawn)
2. C[C@]12CC[C@H]3[C@@H](CC(F)[C@@]4(O)C[C@@H](O)CC[C@]34C)[C@@H]1CC=C2c1cccnc1 (stereo partly drawn)
3. CC(=O)NC1CC[C@@]2(C)C(CC[C@@H]3[C@@H]2CC[C@]2(C)C(c4cccnc4)=CC[C@@H]32)C1 (single isomer, unassigned)
4. CC(C)(C)NC(=O)O[C@H]1CC[C@@]2(C)C(=CC[C@H]3C4=CC=C(c5cccnc5)[C@@]4(C)CC[C@@H]32)C1
5. CCNC(=O)N[C@@H]1CC[C@@]2(C)C(CC[C@@H]3[C@@H]2CC[C@]2(C)C(n4ccnc4)=CC[C@@H]32)C1 (stereo partly drawn)

Result:
1. < 10%
2. ≥ 50%
3. ≥ 50%
4. 10 to 50%
5. ≥ 50%

Kindly give each listed record's inhibition at 20 h.
1. C[C@]12CC[C@H]3[C@@H](CCC4=CC(=O)CC[C@@]43C)C1=CC=C2c1cncnc1
2. CC1=C2CC[C@@H]3[C@H](CC[C@]4(C)C(c5cccnc5)=CC[C@@H]34)[C@@]2(C)CCC1O (stereo partly drawn)
3. CCNC(=O)NC1CC[C@@]2(C)C(CC[C@@H]3[C@@H]2CC[C@]2(C)C(c4cccnc4)=CC[C@@H]32)C1C (stereo partly drawn)
4. CC(=O)N[C@@H]1CC[C@@]2(C)C(=CC[C@@H]3[C@@H]2CC[C@]2(C)C(c4cccnc4)=CC[C@@H]32)C1
5. C[C@]12CC[C@H](O)CC1CC[C@@H]1[C@@H]2CC[C@]2(C)C(c3ccc[n+]([O-])c3)CC[C@@H]12 (stereo partly drawn)

Result:
1. ≥ 50%
2. 10 to 50%
3. < 10%
4. ≥ 50%
5. 10 to 50%
